Molecular target: GCase (Cerezyme) (Homo sapiens, UniProt P04062, R534H)
Sequence (P04062 40-536 R534H): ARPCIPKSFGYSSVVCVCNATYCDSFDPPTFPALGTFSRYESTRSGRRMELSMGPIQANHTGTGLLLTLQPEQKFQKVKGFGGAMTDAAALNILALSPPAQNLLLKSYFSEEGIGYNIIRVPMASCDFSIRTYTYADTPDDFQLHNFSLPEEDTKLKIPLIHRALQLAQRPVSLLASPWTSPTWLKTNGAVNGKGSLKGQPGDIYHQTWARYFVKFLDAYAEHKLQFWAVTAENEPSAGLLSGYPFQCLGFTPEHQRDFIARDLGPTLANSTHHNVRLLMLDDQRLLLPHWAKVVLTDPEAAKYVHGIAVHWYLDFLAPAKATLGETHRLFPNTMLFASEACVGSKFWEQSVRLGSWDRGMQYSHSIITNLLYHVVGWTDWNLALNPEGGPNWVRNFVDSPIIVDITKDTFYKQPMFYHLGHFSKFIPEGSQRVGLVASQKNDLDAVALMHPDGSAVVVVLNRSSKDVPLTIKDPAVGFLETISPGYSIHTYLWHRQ
Assay: Thermal stability assay for GCase
Type: binding
Details: pH 7.2, inhibitor 1 mM
measured parameter: Tm (°C)

[[record]]
molecule = "Cl.OCCN1C[C@H](O)[C@@H](O)[C@H](O)[C@@H](O)C1 [Compound 2]"
recorded_measurement = 49.3

[[record]]
molecule = "Cl.OCCOCCN1C[C@H](O)[C@@H](O)[C@H](O)[C@@H](O)C1 [Compound 3]"
recorded_measurement = 52.0

[[record]]
molecule = "Cl.O[C@H]1[C@H](O)[C@@H](O)CNC[C@@H]1O [Compound 1]"
recorded_measurement = 49.4

[[record]]
molecule = "OC[C@H]1CNC[C@@H](O)[C@@H]1O [IFG, isofagomine, reference compound]"
recorded_measurement = 65.4

